Test system: Escherichia coli TOP10;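 also: peptides expressed intracellularly from a pBAD plasmid library in pooled LB shake-flask culture, induced with 0.3% L-arabinose, DNA abundance read by NGS, three biological replicates, DESeq2 with apeglm shrinkage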
protocol summary: shrunken log2 fold change of peptide-encoding DNA abundance (4.5 h post-induction vs induction); higher = less antimicrobial activity (less host growth inhibition)
stated conditions: time post-induction: 4.5 h; library: site-saturation at positions 5, 18, 19, 20
Label y when shrunken log2 fold change is at or above 0.06; anything below gets n.

{"columns": ["biosequence", "experimental system", "class"],
 "data": [
  ["RRIRYRPPRLPRPRPRPSMYPRP", "Escherichia coli TOP10", "n"],
  ["RRIRMRPPRLPRPRPRPLCYPRP", "Escherichia coli TOP10", "n"],
  ["RRIRYRPPRLPRPRPRPMAIPRP", "Escherichia coli TOP10", "n"],
  ["RRIRWRPPRLPRPRPRPCSFPRP", "Escherichia coli TOP10", "y"],
  ["RRIRLRPPRLPRPRPRPPYAPRP", "Escherichia coli TOP10", "y"],
  ["RRIRLRPPRLPRPRPRPREMPRP", "Escherichia coli TOP10", "y"],
  ["RRIRLRPPRLPRPRPRPRCEPRP", "Escherichia coli TOP10", "y"],
  ["RRIRRRPPRLPRPRPRPVRFPRP", "Escherichia coli TOP10", "y"]
]}

The measurements presented in this section are drawn from the supplement of paper PMC9112550.
